biological target: P. falciparum apicoplast DNA polymerase (Pf-apPOL) (Plasmodium falciparum, UniProt Q8ILY1); assay: Fluorescence-based high-throughput DNA polymerase assay (molecular beacon), primary screen and dose-response; format: biochemical; settings: DRC-1; 10'; concentration 40
Sequence (Q8ILY1 entry or part of it): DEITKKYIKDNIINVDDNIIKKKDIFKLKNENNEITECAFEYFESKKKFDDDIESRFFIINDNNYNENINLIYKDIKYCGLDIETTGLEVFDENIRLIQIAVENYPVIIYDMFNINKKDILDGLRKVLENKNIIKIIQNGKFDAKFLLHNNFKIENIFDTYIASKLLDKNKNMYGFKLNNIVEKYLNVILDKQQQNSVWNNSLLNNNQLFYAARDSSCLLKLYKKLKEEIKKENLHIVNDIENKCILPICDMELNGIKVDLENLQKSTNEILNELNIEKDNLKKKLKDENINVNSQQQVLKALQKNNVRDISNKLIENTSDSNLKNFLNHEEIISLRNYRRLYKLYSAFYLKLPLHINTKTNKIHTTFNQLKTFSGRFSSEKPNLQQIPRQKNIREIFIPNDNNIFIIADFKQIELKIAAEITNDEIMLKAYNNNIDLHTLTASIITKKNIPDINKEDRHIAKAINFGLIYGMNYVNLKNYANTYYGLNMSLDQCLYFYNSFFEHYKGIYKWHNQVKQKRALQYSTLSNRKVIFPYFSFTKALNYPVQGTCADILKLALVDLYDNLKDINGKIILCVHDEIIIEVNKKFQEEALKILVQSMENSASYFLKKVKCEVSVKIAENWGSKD
readoutType: % inhibition Apo pol 10' (%)
State just the number; it will be interpreted in %.

Query string: What value of % inhibition Apo pol 10' has been recorded for this entry: COc1ccc(-c2n[nH]cc2Oc2ccc(Cl)cc2)c(O)c1
Result string: 82.54

Query string: Follow-up item: NS(=O)(=O)c1ccc(NC(=O)c2ccc(N3C(=O)CCC3=O)cc2)cc1
Result string: 82.955

Query string: Moving on to COc1cccc(C(=O)N2CCc3c(nc4cc(-c5ccccc5)[nH]n4c3=O)C2)c1OC
Result string: 88

Query string: Param item: COc1ccc(-c2cc3nc4c(c(=O)n3[nH]2)CCN(C(=O)CCc2ccccc2)C4)cc1
Result string: 82

Query string: Another compound: Cc1cc(C)c(O)c(/N=C/c2cc([N+](=O)[O-])cc(Br)c2O)c1
Result string: 60.3951

Query string: Moving on to the next compound: O=C(NC(C(Cl)Cl)S(=O)(=O)c1ccccc1)c1ccccc1 (stereo not drawn)
Result string: 77.5747

Query string: Now the compound CC(NC(=O)Cc1cc(=O)[nH]c(SCc2cccc(Cl)c2)n1)c1ccccc1 (stereo not drawn)
Result string: 64.8608

Query string: Can you check Cc1cc(C)c2c(O)nc(SCC(=O)c3ccc(O)c(O)c3)nc2n1 next?
Result string: 98.8856

Query string: For CCCCc1ccc(NC(=O)CSc2nc(O)c(C#N)c(C3CCCCC3)n2)c(C)c1 then?
Result string: 94.4176

Query string: Item: O=C(c1c[nH]c2ncccc12)N1CCCC1 [Molecule 63, O=C(c1c[nH]c2c1cccn2)N1CCCC1]
Result string: 59.3862

Query string: Further, for O=C(Cn1ccc2c(=O)[nH]ccc21)Nc1ccc(Cl)cc1 [Molecule 36, O=C(Cn1ccc2c1cc[nH]c2=O)Nc1ccc(cc1)Cl] ?
Result string: 82.0585

Query string: Next entry: O=C(Nc1nnc(-c2ccno2)o1)c1ccc2c(c1)OCO2
Result string: 61.4938

Query string: Ok, now CSC(C)C(=O)C=CN(C)C (stereo not drawn)
Result string: 61.0031

Query string: Try N#CC(=NNc1cc(C(F)(F)F)cc(C(F)(F)F)c1)C(=O)c1ccco1 next.
Result string: 90.9847

Query string: Let us now turn to CCCCSc1nnc2c(n1)OC(c1ccc([N+](=O)[O-])o1)Nc1ccccc1-2 (stereo not drawn)
Result string: 87.9065

Query string: Now consider COc1ccc(NC(=O)Cn2ccc3c(=O)[nH]ccc32)cc1 [Molecule 13, COc1ccc(cc1)NC(=O)Cn1ccc2c1cc[nH]c2=O] .
Result string: 89.1437

Query string: What about this compound? CSCCC(C)(O)CNC(=O)C1CC1 (stereo not drawn)
Result string: 40.4484

Query string: Try the compound O=C1N=C(Nc2cccc(Cl)c2Cl)S/C1=C\c1ccco1 [Molecule 3, O=C1N=C(S/C/1=C\c1ccco1)Nc1cccc(c1Cl)Cl]
Result string: 64.4851

Query string: Next up: CCOC(=O)C(NCc1ccco1)(NC(=O)c1ccco1)C(F)(F)F (stereo not drawn)
Result string: 51.156

Query string: What about O=C(Nc1c2c(nn1-c1ccc(Oc3ccccc3)cc1)CSC2)c1ccco1 ?
Result string: 85.1313

Query string: Also Cc1cccc(CC(=O)N2CCc3c(nc4cc(-c5ccccc5)[nH]n4c3=O)C2)c1 ?
Result string: 86
